Molecular target: Integrin alpha-4/beta-7 (Homo sapiens, UniProt P13612+P26010)
Sequence (P13612 whole entry): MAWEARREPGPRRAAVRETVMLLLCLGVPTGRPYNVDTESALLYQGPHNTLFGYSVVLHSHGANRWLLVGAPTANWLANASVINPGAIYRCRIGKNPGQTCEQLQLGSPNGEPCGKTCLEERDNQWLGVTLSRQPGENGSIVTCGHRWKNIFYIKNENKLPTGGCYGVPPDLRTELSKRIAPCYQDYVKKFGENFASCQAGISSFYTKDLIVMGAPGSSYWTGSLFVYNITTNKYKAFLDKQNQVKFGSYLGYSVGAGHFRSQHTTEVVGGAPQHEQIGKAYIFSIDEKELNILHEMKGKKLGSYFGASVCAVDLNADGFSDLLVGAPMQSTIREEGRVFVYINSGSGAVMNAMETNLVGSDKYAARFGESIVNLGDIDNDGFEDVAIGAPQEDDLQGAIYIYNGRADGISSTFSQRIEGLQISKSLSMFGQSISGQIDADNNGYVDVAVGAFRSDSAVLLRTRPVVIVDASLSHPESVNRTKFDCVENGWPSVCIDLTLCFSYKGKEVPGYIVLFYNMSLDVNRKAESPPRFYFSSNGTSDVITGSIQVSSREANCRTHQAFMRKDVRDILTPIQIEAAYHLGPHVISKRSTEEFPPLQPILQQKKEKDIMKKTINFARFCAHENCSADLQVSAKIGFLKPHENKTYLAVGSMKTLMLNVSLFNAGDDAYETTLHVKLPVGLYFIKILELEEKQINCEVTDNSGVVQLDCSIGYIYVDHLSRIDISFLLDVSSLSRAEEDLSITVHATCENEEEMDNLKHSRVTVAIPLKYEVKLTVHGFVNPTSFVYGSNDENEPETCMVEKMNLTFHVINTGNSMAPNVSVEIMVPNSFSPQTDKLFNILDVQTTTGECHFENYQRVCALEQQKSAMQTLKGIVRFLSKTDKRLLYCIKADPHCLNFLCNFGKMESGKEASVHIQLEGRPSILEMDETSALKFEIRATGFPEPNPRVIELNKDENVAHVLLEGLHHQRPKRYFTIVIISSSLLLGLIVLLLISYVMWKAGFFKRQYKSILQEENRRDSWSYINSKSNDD
Sequence (P26010 whole entry): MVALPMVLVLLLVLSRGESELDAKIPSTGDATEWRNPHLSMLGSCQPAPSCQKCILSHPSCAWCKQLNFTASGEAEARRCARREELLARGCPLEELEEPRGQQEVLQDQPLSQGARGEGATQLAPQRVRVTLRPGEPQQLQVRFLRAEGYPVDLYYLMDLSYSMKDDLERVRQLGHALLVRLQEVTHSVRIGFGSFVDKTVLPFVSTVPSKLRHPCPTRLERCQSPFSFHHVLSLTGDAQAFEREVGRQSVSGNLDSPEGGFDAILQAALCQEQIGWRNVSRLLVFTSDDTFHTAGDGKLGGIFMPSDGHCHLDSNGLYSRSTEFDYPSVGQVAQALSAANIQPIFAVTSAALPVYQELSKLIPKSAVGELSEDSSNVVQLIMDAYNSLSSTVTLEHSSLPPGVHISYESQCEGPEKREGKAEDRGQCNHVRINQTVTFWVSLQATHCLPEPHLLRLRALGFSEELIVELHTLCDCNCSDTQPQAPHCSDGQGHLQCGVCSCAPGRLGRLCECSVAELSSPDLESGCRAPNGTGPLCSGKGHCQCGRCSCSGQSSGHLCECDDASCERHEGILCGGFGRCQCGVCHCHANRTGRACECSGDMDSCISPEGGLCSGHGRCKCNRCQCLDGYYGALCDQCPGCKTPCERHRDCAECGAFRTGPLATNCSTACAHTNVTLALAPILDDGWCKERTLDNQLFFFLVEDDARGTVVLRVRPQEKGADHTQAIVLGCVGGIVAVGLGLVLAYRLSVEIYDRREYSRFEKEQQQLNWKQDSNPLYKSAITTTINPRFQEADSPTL
Assay: Alpha4-beta7 integrin binding affinity was determined in duplicate by a radioligand binding assay using [125I]-VCAM-Ig and a suspension of RPMI-8866 cells (a human B cell line alpha-4-beta-1-beta-7+)
Type: cell-based
Starred links: 1 amine or outer side, 2 acyl side, 3 side chain; linkers in the order of their positions; H or OH if unused. Residues, ends and D or L forms follow the SMILES beside them. Groups on a side chain read outwards from the residue. *: point of attachment. Pyrrolidide = C1CCN(*)C1; CO = O=C([*:1])[*:2]; Ms = CS(=O)(=O)*
property.measured: pIC50
Would you please state pIC50, meaning minus log10 of the concentration in mol/L, as a bare number?

Task: Please report the recorded pIC50 for O=C(O)[C@H](Cc1ccc(OCc2nnn[nH]2)cc1)NC(=O)[C@@H]1CCCN1S(=O)(=O)c1cc(Cl)cc(Cl)c1 .
Result: 6.78

Task: Same question for CN(C(=O)Oc1ccc(C[C@H](NC(=O)[C@]2(C)CCCN2S(=O)(=O)c2cc(Cl)cc(Cl)c2)C(=O)O)cc1)c1ccccc1 please.
Result: 7.91

Task: Now give it for O=C(O)[C@H](Cc1ccc(OC(=O)N2CCCC2)cc1)NC(=O)[C@@H]1CCCN1S(=O)(=O)c1cc(Cl)cc(Cl)c1 too.
Result: 8.72

Task: Repeat with CC(C)(C)OC(=O)COc1ccc(C[C@H](NC(=O)[C@@H]2CCCN2S(=O)(=O)c2cc(Cl)cc(Cl)c2)C(=O)O)cc1
Result: 6.68

Task: Now give it for CC(C)N(C(=O)Oc1ccc(C[C@H](NC(=O)[C@]2(C)CCCN2S(=O)(=O)c2cc(Cl)cc(Cl)c2)C(=O)O)cc1)C(C)C too.
Result: 7.20

Task: And then CCN(CC)C(=O)Oc1ccc(C[C@H](NC(=O)[C@]2(C)CCCN2S(=O)(=O)c2cc(Cl)cc(Cl)c2)C(=O)O)cc1 , what is it?
Result: 7.53

Task: Next molecule up: CC(=O)COc1ccc(C[C@H](NC(=O)[C@@H]2CCCN2S(=O)(=O)c2cc(Cl)cc(Cl)c2)C(=O)O)cc1
Result: 7.29

Task: What about this molecule? O=C(Oc1ccc(C[C@H](NC(=O)[C@@H]2CCCN2S(=O)(=O)c2cc(Cl)cc(Cl)c2)C(=O)O)cc1)c1ccc[nH]1
Result: 7.89

Task: And for O=C(O)[C@H](Cc1ccc(OCc2ccccc2)cc1)NC(=O)[C@@H]1CCCN1S(=O)(=O)c1cc(Cl)cc(Cl)c1 ?
Result: 6.07

Task: Here is the next molecule: N#CCOc1ccc(C[C@H](NC(=O)[C@@H]2CCCN2S(=O)(=O)c2cc(Cl)cc(Cl)c2)C(=O)O)cc1
Result: 6.61

Task: Same again, this time with COCCOc1ccc(C[C@H](NC(=O)[C@@H]2CCCN2S(=O)(=O)c2cc(Cl)cc(Cl)c2)C(=O)O)cc1
Result: 7.20

Task: Then CS(=O)(=O)N1CCC[C@H]1C(=O)N[C@@H](Cc1ccc(OC(=O)N2CCCC2)cc1)C(=O)O (Ms-Pro-Tyr([CO-Pyrrolidide])-OH) ?
Result: 8.36

Task: Request: O=C(Oc1ccc(C[C@H](NC(=O)[C@@H]2CCCN2S(=O)(=O)c2cc(Cl)cc(Cl)c2)C(=O)O)cc1)C1CCCC1
Result: 7.23

Task: Lookup O=C(Oc1ccc(C[C@H](NC(=O)[C@@H]2CCCN2S(=O)(=O)c2cc(Cl)cc(Cl)c2)C(=O)O)cc1)c1ccccc1
Result: 7.36

Task: Now the molecule O=C(O)[C@H](Cc1ccc(OC(=O)N2CCCC2)cc1)NC(=O)[C@@H]1CCCN1S(=O)(=O)c1ccccc1
Result: 8.55

Task: Please do the same for C[C@@]1(C(=O)N[C@@H](Cc2ccc(OC(=O)N3CCCC3)cc2)C(=O)O)CCCN1S(=O)(=O)c1cc(Cl)cc(Cl)c1 as well.
Result: 8.28

Task: Also check C[C@@]1(C(=O)N[C@@H](Cc2ccc(OC(=O)N3CCOCC3)cc2)C(=O)O)CCCN1S(=O)(=O)c1cc(Cl)cc(Cl)c1
Result: 8.45

// data source = ChEMBL document CHEMBL1135368
